# tgt: UniProt:P00797
# Sequence (P00797 whole entry): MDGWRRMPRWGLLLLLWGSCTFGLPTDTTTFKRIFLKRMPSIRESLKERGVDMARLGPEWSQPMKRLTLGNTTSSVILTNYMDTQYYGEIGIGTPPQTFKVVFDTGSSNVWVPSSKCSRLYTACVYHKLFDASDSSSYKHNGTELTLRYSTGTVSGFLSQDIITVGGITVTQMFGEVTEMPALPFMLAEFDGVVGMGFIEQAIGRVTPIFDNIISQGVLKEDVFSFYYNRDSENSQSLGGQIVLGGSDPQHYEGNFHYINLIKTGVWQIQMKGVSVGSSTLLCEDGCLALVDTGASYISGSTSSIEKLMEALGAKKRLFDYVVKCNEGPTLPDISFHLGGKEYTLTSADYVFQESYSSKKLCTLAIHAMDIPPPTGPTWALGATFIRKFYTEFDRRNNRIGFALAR
# assay.notes: The compound was tested in vitro for inhibition of human plasma renin.
endpoint: pIC50
Please express pIC50 as -log10 of the molar concentration.

The cases that follow already have their pIC50 on record.
structure.smiles.string | measured
CN(C)CCNC(=O)Cn1nnnc1SC[C@H](O)[C@H](CC1CCCCC1)NC(=O)[C@H](Cc1c[nH]cn1)NC(=O)[C@H](Cc1ccccc1)NC(=O)OC(C)(C)C | 5.89
CC(C)(C)OC(=O)N[C@@H](Cc1ccccc1)C(=O)N[C@@H](Cc1c[nH]cn1)C(=O)N[C@@H](CC1CCCCC1)[C@@H](O)CSc1nnnn1CCN1CCOCC1 | 7.41
Cn1ccnc1SC[C@H](O)[C@H](CC1CCCCC1)NC(=O)[C@H](Cc1c[nH]cn1)NC(=O)[C@H](Cc1ccccc1)NC(=O)OC(C)(C)C | 6.91

Please tell me: pIC50 of Cc1ccnc(SC[C@H](O)[C@H](CC2CCCCC2)NC(=O)[C@H](Cc2cnc[nH]2)NC(=O)[C@H](Cc2ccccc2)NC(=O)OC(C)(C)C)n1 , system UniProt:P00797?
6.62

What would you report for CC(C)(C)OC(=O)N[C@@H](Cc1ccccc1)C(=O)N[C@@H](Cc1cnc[nH]1)C(=O)N[C@@H](CC1CCCCC1)[C@@H](O)CSc1nnnn1CC(N)=O ?
6.35

Lookup Cn1nnnc1SC[C@H](O)[C@H](CC1CCCCC1)NC(=O)[C@H](Cc1c[nH]cn1)NC(=O)[C@H](Cc1ccccc1)NC(=O)OC(C)(C)C
7.49

Also CC(C)(C)OC(=O)N[C@@H](Cc1ccccc1)C(=O)N[C@@H](Cc1c[nH]cn1)C(=O)N[C@@H](CC1CCCCC1)[C@@H](O)CSc1nnnn1CCc1ccncc1 ?
7.51

Now give it for CC(C)(C)OC(=O)N[C@@H](Cc1ccccc1)C(=O)N[C@@H](Cc1cnc[nH]1)C(=O)N[C@@H](CC1CCCCC1)[C@@H](O)CSc1ccccn1 too.
6.70

Same thing, different molecule: CC(C)(C)OC(=O)N[C@@H](Cc1ccccc1)C(=O)N[C@@H](Cc1c[nH]cn1)C(=O)N[C@@H](CC1CCCCC1)[C@@H](O)CS(=O)(=O)c1nnnn1CCc1cc[n+]([O-])cc1
7.43

Then this molecule: CC(C)(C)OC(=O)N[C@@H](Cc1ccccc1)C(=O)N[C@@H](Cc1c[nH]cn1)C(=O)N[C@@H](CC1CCCCC1)[C@@H](O)CSc1nnc(C(F)(F)F)n1CCc1ccncc1
7.39

Proceed to Cn1c(SC[C@H](O)[C@H](CC2CCCCC2)NC(=O)[C@H](Cc2c[nH]cn2)NC(=O)[C@H](Cc2ccccc2)NC(=O)OC(C)(C)C)nnc1C(F)(F)F
7.41

And then CC(C)(C)OC(=O)N[C@@H](Cc1ccccc1)C(=O)N[C@@H](Cc1c[nH]cn1)C(=O)N[C@@H](CC1CCCCC1)[C@@H](O)CSc1nnnn1CCc1ccc(O)cc1 , what is it?
7.48
